target: ACVR1B (human) (UniProt P36896); assay: radiometric filter-binding kinase assay, Kinase HotSpot; settings: compound 0.5 µM; ATP 10 µM
Sequence (P36896 whole entry, looked up): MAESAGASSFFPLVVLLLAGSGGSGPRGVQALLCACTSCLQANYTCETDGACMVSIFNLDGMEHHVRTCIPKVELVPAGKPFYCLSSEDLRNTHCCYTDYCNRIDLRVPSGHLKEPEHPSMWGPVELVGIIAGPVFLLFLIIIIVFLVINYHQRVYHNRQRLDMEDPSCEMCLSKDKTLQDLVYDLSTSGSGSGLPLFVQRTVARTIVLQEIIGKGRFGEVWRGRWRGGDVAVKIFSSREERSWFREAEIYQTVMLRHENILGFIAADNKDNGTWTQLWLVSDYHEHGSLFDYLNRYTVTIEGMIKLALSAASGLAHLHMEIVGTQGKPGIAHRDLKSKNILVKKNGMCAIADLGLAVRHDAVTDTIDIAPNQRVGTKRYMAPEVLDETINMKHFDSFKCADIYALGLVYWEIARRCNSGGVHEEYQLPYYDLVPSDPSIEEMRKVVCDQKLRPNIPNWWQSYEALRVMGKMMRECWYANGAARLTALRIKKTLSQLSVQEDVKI
Property: residual activity (%)
Give the value in % but do not write % after it.

Previously resolved entries follow.
Read the entry c1ccc2c(-c3ccncc3)c[nH]c2c1 and write its reported residual activity.
98.8

Read the entry O=C(c1cc2cc(O)ccc2[nH]1)c1cc2cc(O)ccc2[nH]1 and write its reported residual activity.
98.9

Read the entry Cc1cncc2cccc(S(=O)(=O)N3CCCN(C(=O)CN)C[C@H]3C)c12 and write its reported residual activity.
100

Continuing:
Read the entry CN(C)CCCn1cc(C2=C(c3c[nH]c4ccccc34)C(=O)NC2=O)c2ccccc21 and write its reported residual activity.
106

Read the entry N#C/C(=C\c1ccc(O)c(O)c1)C(=O)NCc1ccccc1 and write its reported residual activity.
98

Read the entry O=C1c2ccccc2-c2nc3nnnn3nc21 and write its reported residual activity.
113

----------
molecular target: MATK (human) (UniProt P42679); assay: radiometric filter-binding kinase assay, Kinase HotSpot; settings: compound 0.5 µM; ATP 10 µM
Sequence (P42679 whole entry, looked up): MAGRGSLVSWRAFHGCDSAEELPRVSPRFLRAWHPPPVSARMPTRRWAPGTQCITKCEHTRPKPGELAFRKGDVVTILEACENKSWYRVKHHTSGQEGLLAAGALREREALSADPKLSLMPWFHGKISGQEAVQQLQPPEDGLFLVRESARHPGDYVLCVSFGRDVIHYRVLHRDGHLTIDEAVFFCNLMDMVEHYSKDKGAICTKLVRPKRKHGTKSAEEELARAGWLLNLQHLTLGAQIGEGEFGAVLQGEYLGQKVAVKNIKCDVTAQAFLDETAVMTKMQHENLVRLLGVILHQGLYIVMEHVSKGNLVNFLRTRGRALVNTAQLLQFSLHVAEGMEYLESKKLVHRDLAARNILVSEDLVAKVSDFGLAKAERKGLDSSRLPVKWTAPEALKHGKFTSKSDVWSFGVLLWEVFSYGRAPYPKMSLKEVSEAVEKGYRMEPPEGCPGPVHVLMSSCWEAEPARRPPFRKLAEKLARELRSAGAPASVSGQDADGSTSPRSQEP
Catalogue of compounds with associated residual activity
Give the value in % but do not write % after it.

Previously resolved entries follow.
Read the entry COc1cc(Nc2c(C#N)cnc3cc(OCCCN4CCN(C)CC4)c(OC)cc23)c(Cl)cc1Cl and write its reported residual activity.
140

Read the entry Fc1ccc(-c2nc3n(c2-c2ccncc2)CCS3)cc1 and write its reported residual activity.
89.4

Read the entry CN(C)S(=O)(=O)c1ccc2c(c1)/C(=C/c1cc3c([nH]1)CCCC3)C(=O)N2 and write its reported residual activity.
104

Read the entry NC(=O)c1cccc(-c2cc(Nc3ccc(OC(F)(F)F)cc3)ncn2)c1 and write its reported residual activity.
100

Read the entry c1ccc2c(-c3ccncc3)c[nH]c2c1 and write its reported residual activity.
93.9

Read the entry COc1ccc(Cl)cc1NC(=O)Nc1cc(C)nc2ccccc12 and write its reported residual activity.
98.2

Read the entry CC(C)(C)c1cc(C=C(C#N)C#N)cc(Br)c1O and write its reported residual activity.
102

Read the entry O=C1c2ccccc2-c2nc3nnnn3nc21 and write its reported residual activity.
99.7

Continuing:
Read the entry C[C@@H]1CCN(C(=O)CC#N)C[C@@H]1N(C)c1ncnc2[nH]ccc12 and write its reported residual activity.
66.9

Read the entry CN(C)CCCn1cc(C2=C(c3c[nH]c4ccccc34)C(=O)NC2=O)c2ccccc21 and write its reported residual activity.
100

Read the entry O=C1C(Cl)=C(N2C(=O)CCC2=O)C(=O)c2ccccc21 and write its reported residual activity.
88

Read the entry COc1cc2ncnc(Nc3ccc(Oc4ccccc4)cc3)c2cc1OC and write its reported residual activity.
94.3

----------
molecular target: UniProtKB Q9Y2U5; test: radiometric filter-binding kinase assay, Kinase HotSpot; settings: compound 0.5 µM; ATP 10 µM
Sequence (Q9Y2U5 whole entry, looked up): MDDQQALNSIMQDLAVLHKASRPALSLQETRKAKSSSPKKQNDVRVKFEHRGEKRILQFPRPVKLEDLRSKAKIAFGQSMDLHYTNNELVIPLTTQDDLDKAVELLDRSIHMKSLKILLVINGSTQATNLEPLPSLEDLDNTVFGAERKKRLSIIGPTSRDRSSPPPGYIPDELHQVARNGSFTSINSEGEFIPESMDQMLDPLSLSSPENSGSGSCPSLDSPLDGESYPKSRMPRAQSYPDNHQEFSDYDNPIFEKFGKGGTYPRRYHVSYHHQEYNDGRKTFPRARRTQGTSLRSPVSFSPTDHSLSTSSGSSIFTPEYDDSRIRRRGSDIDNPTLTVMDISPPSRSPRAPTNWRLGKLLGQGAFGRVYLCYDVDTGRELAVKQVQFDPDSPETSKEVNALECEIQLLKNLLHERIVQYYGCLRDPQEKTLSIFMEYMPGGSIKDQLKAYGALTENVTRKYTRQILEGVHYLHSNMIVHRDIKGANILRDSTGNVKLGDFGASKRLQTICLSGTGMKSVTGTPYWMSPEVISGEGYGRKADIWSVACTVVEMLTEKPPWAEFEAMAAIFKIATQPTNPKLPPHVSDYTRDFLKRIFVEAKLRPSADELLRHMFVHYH
Property: residual activity (%)
Give the value in % but do not write % after it.

Read the entry O=C1c2ccccc2-c2nc3nnnn3nc21 and write its reported residual activity.
83

Continuing:
Read the entry Ic1cccc(CSc2nnc(-c3ccncc3)o2)c1 and write its reported residual activity.
106

Read the entry N#Cc1c[nH]c2c[nH]/c(=N\Cc3cccnc3)cc2/c1=N\c1ccc(F)c(Cl)c1 and write its reported residual activity.
81.2

----------
molecular target: MAPK1 (human); experiment: radiometric filter-binding kinase assay, Kinase HotSpot; conditions: compound 0.5 µM; ATP 10 µM
Kindly return met if reported residual activity is no lower than 90%; return not met if it is lower.

Solved cases below.
Entry CS(=O)(=O)CCNCc1ccc(-c2ccc3ncnc(Nc4ccc(OCc5cccc(F)c5)c(Cl)c4)c3c2)o1 : is its residual activity no less than 90%?
met

Entry O=C1C(Cl)=C(N2C(=O)CCC2=O)C(=O)c2ccccc21 : is its residual activity no less than 90%?
not met

Entry CCCCc1c(-c2ccc(OC)cc2)[nH]c2nccnc12 : is its residual activity no less than 90%?
met

Now turn to the next molecule.
Entry CN(C)CCCn1cc(C2=C(c3c[nH]c4ccccc34)C(=O)NC2=O)c2ccccc21 : is its residual activity no less than 90%?
met
